Reported %Inh values for a set of compounds
Tested on: NIM1
Construct: gene MGC42105
condition_label: concentration: 1 μM,replicates: in singlicate; n = 1;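 note: KINOMEscan kinase panel screen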
Reply with just the number (in %).

As a guide, the following entries are already answered.
[[record]]
compound_structure = "O=C1NCCc2[nH]c(-c3ccncc3)cc21"
recorded_value = 45

[[record]]
compound_structure = "O=c1[nH]cc(-c2ccc(O)cc2)c2sc(-c3ccncc3)cc12"
recorded_value = 4

[[record]]
compound_structure = "Cl.c1ccc(Oc2ccc(Nc3ccnc4cc(-c5ccc(CN6CCNCC6)o5)ccc34)cc2)nc1"
recorded_value = 0


Note down %Inh recorded for `Cc1n[nH]c2cc(Nc3ccnc(Nc4cccc(CN5CCOCC5)c4)n3)ccc12`
22

Dear colleague, please send me the reported %Inh for `CC(C)S(=O)(=O)N1CCN(Cc2ccc3c(c2)nc(NC(=O)c2ccsc2)n3C[C@H](O)c2ccccc2)CC1` when you can.
20

* * *

Test system: DAPK1
condition_label: concentration: 1 μM,replicates: in singlicate; n = 1
value_kind: %Inh (%)
Just the number please, in %, no unit attached.

[[record]]
molecule = "CN(c1ccc2c(c1)nc(NCc1ccc(F)cc1)n2C)c1ccnc(Nc2ccc(CS(C)(=O)=O)cc2)n1.Cl"
target_under_test = "DAPK1"
value_kind = "%Inh"
recorded_value = 5

[[record]]
molecule = "Cn1cc(-c2cccc3c(N)c(C(N)=O)nnc23)cn1"
target_under_test = "DAPK1"
value_kind = "%Inh"
recorded_value = 3

[[record]]
molecule = "COc1cc2ncn(-c3cc(OCC4CCCCC4)c(C(N)=O)s3)c2cc1OC"
target_under_test = "DAPK1"
value_kind = "%Inh"
recorded_value = 35

[[record]]
molecule = "N#Cc1cccc(C(=O)NC2CCN(c3ccnc(Nc4ccc(F)cc4)n3)C2)c1 (stereo not shown)"
target_under_test = "DAPK1"
value_kind = "%Inh"
recorded_value = 0

[[record]]
molecule = "CS(=O)(=O)Nc1ccc(-c2ccnc3[nH]ccc23)cc1"
target_under_test = "DAPK1"
value_kind = "%Inh"
recorded_value = 73

[[record]]
molecule = "Cl.Cl.NC[C@H](CC1CCCCC1)NC(=O)c1ccc(-c2ccnc3[nH]ccc23)s1"
target_under_test = "DAPK1"
value_kind = "%Inh"
recorded_value = 49


Please report the measured %Inh for `NC(=O)c1ccc(-c2cc3ncnc(SCC(=O)O)c3s2)cc1`
0

* * *

System: PIK3CB
condition_label: concentration: 1 μM,replicates: in singlicate; n = 1
value_kind: %Inh (%)
Write it as a number; the unit % goes unstated.

[[record]]
compound = "CCN1CCN(CCCC(=O)Nc2n[nH]c3nc(-c4ccc(O)cc4)c(Br)cc23)CC1"
recorded_value = 0

[[record]]
compound = "Cn1cc(-c2cccc3c(N)c(C(N)=O)nnc23)cn1"
recorded_value = 0

[[record]]
compound = "COC(=O)c1cccc(NC(=O)NC2CCN(c3ccnc(NCc4ccc(F)cc4)n3)CC2)c1"
recorded_value = 0

[[record]]
compound = "NC(=O)Nc1sc(-c2ccc(F)cc2)cc1C(N)=O"
recorded_value = 0

[[record]]
compound = "CC(C)c1nc(-c2cccc(NS(=O)(=O)c3ccccc3)c2)c(-c2ccnc(Nc3ccc4c(c3)CN(C)CC4)n2)s1"
recorded_value = 11


Give the measured %Inh for `O=C(Nc1ccc(Oc2ccc3nc(NC(=O)C4CC4)cn3n2)c(F)c1)c1cccn(-c2ccccc2)c1=O`
0

Give reported %Inh value for `Cc1cccc(-c2nc(Nc3ccncc3)c3sccc3n2)n1`
28

Tell me its %Inh given `COc1cc2ncn(-c3cc(OCC4CCCCC4)c(C(N)=O)s3)c2cc1OC` as the entry.
0

* * *

Tested on: PRKG1
condition_label: concentration: 1 μM,replicates: in singlicate; n = 1
# label = yes if %Inh < 1% else no

Some entries whose results are on file:
[[record]]
compound = "O=C(Nc1cccc(C(F)(F)F)c1)c1cccc(Oc2ccc3nccn3n2)c1"
target_under_test = "PRKG1"
group = "no"

[[record]]
compound = "CSc1nccc(-c2c(-c3ccc(F)cc3)ncn2CCCN2CCOCC2)n1.Cl [SB-217146]"
target_under_test = "PRKG1"
group = "yes"

[[record]]
compound = "Cc1ccc(Nc2ccnc(Nc3ccc4c(c3)CS(=O)(=O)C4)n2)cc1O.Cl [GW579362]"
target_under_test = "PRKG1"
group = "yes"

[[record]]
compound = "Cn1ccc2ncnc(Oc3ccc(NC(=O)Nc4cccc(C(F)(F)F)c4)c(Cl)c3)c21"
target_under_test = "PRKG1"
group = "yes"

[[record]]
compound = "CC(C(=O)NC1CCN(c2ccnc(Nc3ccc(F)cc3)n2)C1)c1ccc(Cl)cc1 (stereo not drawn) [GSK1379713]"
target_under_test = "PRKG1"
group = "no"


Does the reported %Inh of the following compound sit strictly below 1%? O=C(NCC1CC1)c1ccc(-c2cc(C(=O)NC3CC3)ccc2F)cc1 [GW810445]
yes

Determine whether this compound shows %Inh lower than 1% (ties excluded): Cc1ccc2c(-c3ccnc(Nc4ccc(C(F)(F)F)cc4)n3)cnn2n1 [GW819776]
no

Confirm or reject: %Inh of CCN1CCN(CCCC(=O)Nc2n[nH]c3nc(-c4ccc(O)cc4)c(Br)cc23)CC1 [SB-731579] lies strictly below 1%
no

* * *

Test system: BRSK1
condition_label: concentration: 1 μM,replicates: in singlicate; n = 1
value_kind: %Inh (%)
Please respond with the number in % and leave the unit unwritten.

The following molecules have reported results that may help.
[[record]]
compound_structure = "CCn1c(-c2nonc2N)nc2cncc(CNC3CCNCC3)c21.Cl"
recorded_value = 4

[[record]]
compound_structure = "COc1cc2c(Nc3ccc(NC(=O)c4ccccc4)cc3)ncnc2cc1OCCCN1CCOCC1"
recorded_value = 20

[[record]]
compound_structure = "c1ccc(Oc2ccc(Nc3ccnc4ccc(-c5ccccn5)cc34)cc2)cc1"
recorded_value = 12

[[record]]
compound_structure = "Cl.c1ccc(Oc2ccc(Nc3ccnc4cc(-c5ccc(CN6CCNCC6)o5)ccc34)cc2)nc1"
recorded_value = 0

[[record]]
compound_structure = "C[C@@H]1CNc2c(sc3ccc4nc(-c5ccncc5)ccc4c23)C(=O)N1"
recorded_value = 64


In one line, give reported %Inh of the entry `O=C(NOCC1CC1)c1cc(Br)c(F)c(F)c1Nc1ccc(I)cc1Cl` .
0

Give the reported value of %Inh for this record: `CNC(=O)c1ccccc1Nc1nc(Nc2cccc(CS(C)(=O)=O)c2)ncc1C.O=CO`
65

For `CC(C)S(=O)(=O)N1CCN(Cc2ccc3c(c2)nc(NC(=O)c2ccsc2)n3C[C@H](O)c2ccccc2)CC1` , write its %Inh.
0

* * *

System: PRP4
condition_label: concentration: 1 μM,replicates: in singlicate; n = 1
# %Inh annotations
Unit % implied. Number only.

Recorded %Inh, per entry:
[[record]]
molecule = "CC(=O)Nc1ccc(-c2cc3ncnc(SCC(=O)O)c3s2)cc1"
target_under_test = "PRP4"
value_kind = "%Inh"
recorded_value = 22

[[record]]
molecule = "CCN1CCN(CCCC(=O)Nc2n[nH]c3nc(-c4ccc(O)cc4)c(Br)cc23)CC1 [SB-731579]"
target_under_test = "PRP4"
value_kind = "%Inh"
recorded_value = 0

[[record]]
molecule = "CCCC(=O)Nc1n[nH]c2ncccc12 [SB-601436]"
target_under_test = "PRP4"
value_kind = "%Inh"
recorded_value = 8

[[record]]
molecule = "C[C@@H]1CNc2c(sc3ccc4nc(-c5ccc(O)cc5)ccc4c23)C(=O)N1"
target_under_test = "PRP4"
value_kind = "%Inh"
recorded_value = 12

[[record]]
molecule = "Cn1ccc2ncnc(Oc3ccc(NC(=O)Nc4cnn(C(C)(C)C)c4)c(Cl)c3)c21"
target_under_test = "PRP4"
value_kind = "%Inh"
recorded_value = 0

[[record]]
molecule = "CCNCC(Cc1ccccc1)NC(=O)c1cc(Br)c(-c2ccnc3[nH]ccc23)s1.Cl.Cl (stereo not drawn) [GSK1383280]"
target_under_test = "PRP4"
value_kind = "%Inh"
recorded_value = 6

[[record]]
molecule = "COc1cc2nccc(Nc3ccc(Oc4ccccc4)cc3)c2cc1OC.Cl [GI261656]"
target_under_test = "PRP4"
value_kind = "%Inh"
recorded_value = 48

[[record]]
molecule = "CCn1c(-c2nonc2N)nc2cncc(CNC3CCNCC3)c21.Cl [SB-747651]"
target_under_test = "PRP4"
value_kind = "%Inh"
recorded_value = 20


From here, focus on the item given below.
Recall the reported %Inh of `O=C(Nc1ccc(Oc2ccc3nc(NC(=O)C4CC4)cn3n2)c(F)c1)c1cccn(-c2ccccc2)c1=O` when tested on PRP4.
0

* * *

System: SLK
condition_label: concentration: 1 μM,replicates: in singlicate; n = 1
Entries annotated with measured %Inh
Please state the figure in %; there is no need to write the unit.

For orientation, consider the following solved cases.
[[record]]
compound = "CCCC(=O)Nc1n[nH]c2ncccc12"
target_under_test = "SLK"
recorded_value = 0

[[record]]
compound = "O=C(Nc1cccc(Oc2ccc3nccn3n2)c1)Nc1cccc(C(F)(F)F)c1"
target_under_test = "SLK"
recorded_value = 0

[[record]]
compound = "O=C(NOCC1CC1)c1cc(Br)c(F)c(F)c1Nc1ccc(I)cc1Cl"
target_under_test = "SLK"
recorded_value = 3

[[record]]
compound = "CC(=O)c1c(-c2ccncc2)[nH]c(-c2ccncc2)c1C"
target_under_test = "SLK"
recorded_value = 0

[[record]]
compound = "O=C(Nc1ccc(Oc2ccc3nc(NC(=O)C4CC4)cn3n2)c(F)c1)c1cccn(-c2ccccc2)c1=O"
target_under_test = "SLK"
recorded_value = 0


Please indicate recorded %Inh of Cc1nnc(-c2ccc3occ(-c4ccc(S(C)=O)cc4)c3n2)o1 (centres unmarked) measured with SLK.
0

State %Inh on SLK. Entry: `Cc1cccc2c(-c3ccncc3)c(-c3ccc(F)cc3)nn12.Cl`
15

Supply %Inh measured with SLK for `COC(=O)Nc1nc2cc(Oc3ccc(NC(=O)Nc4cc(C(F)(F)F)ccc4Cl)cc3)ccc2[nH]1.Cl` .
63

Jot down %Inh (SLK) of CCNCC(Cc1ccccc1)NC(=O)c1cc(Br)c(-c2ccnc3[nH]ccc23)s1.Cl.Cl (centres unmarked) .
0

Output reported %Inh of the compound `COc1cc2ncn(-c3cc(OCC4CCCCC4)c(C(N)=O)s3)c2cc1OC` on SLK.
80

Param request: %Inh | system SLK | item `Cc1ccc(Nc2ccnc(Nc3ccc4c(c3)CS(=O)(=O)C4)n2)cc1O.Cl`
99.2

Specify the recorded %Inh for `COc1cccc(C2=C(Nc3cccc(Cl)c3)C(=O)NC2=O)c1` , system: SLK.
92.2

For SLK, give %Inh of the listed compound: COc1cccc(CNC(=O)NC2CCN(c3ccnc(Nc4cc(OC)c(OC)c(OC)c4)n3)C2)c1 (centres unmarked)
30

Give measured %Inh for `COc1cc2nccc(Nc3ccc(Oc4ccccc4)cc3)c2cc1OC.Cl` (SLK).
26

Give %Inh for this entry on SLK: `CC(C)S(=O)(=O)N1CCN(Cc2ccc3c(c2)nc(NC(=O)c2ccsc2)n3C[C@H](O)c2ccccc2)CC1`
33

Please indicate recorded %Inh of `CN(c1ccc2c(c1)nc(NCc1ccc(F)cc1)n2C)c1ccnc(Nc2ccc(CS(C)(=O)=O)cc2)n1.Cl` measured with SLK.
61

System SLK. Read-out %Inh. Item `CCN1CCN(CCCC(=O)Nc2n[nH]c3nc(-c4ccc(O)cc4)c(Br)cc23)CC1` . Report value.
78

Each recorded value in this set is attributed to paper PMC5540273.
